# System: SK-OV-3
# assay_remarks: NCI tumour cell line growth inhibition, 48 h
Counter-ions that a name gives are not always drawn. Active and inactive are the calls of the source. Rule as the data show it: active = GI50 up to about 1.1 µM and inactive = higher. Where a SMILES comes first, the peptide text is derived from it. [ ]: non-standard residue; d: D form. The star is where a group is joined. Phe(4-NO2) = N[CH](Cc1ccc([N+](=O)[O-])cc1)C(=O)O; Boc = CC(C)(C)OC(=O)*; OtBu = CC(C)(C)O*
Record form. Attribute: GI50. Fill in for each entry.

Return GI50 (reported value) for this molecule: CCCCc1oc2ccccc2c1C(=O)c1cc(I)c(OCCN(CC)CC)c(I)c1 [AMIODARONE HYDROCHLORIDE]
5.98 µM (inactive)

Return GI50 (reported value) for this molecule: COC12c3ccccc3-c3ccccc3C1[C@H]1C(=O)OC(=O)[C@H]12 (stereo partly drawn)
> 10 µM (inactive)

Return GI50 (reported value) for this molecule: O=[N+]([O-])c1ccc(S[C@@H]2[C@H]3c4c(-c5ccccc5)[nH]c(-c5ccccc5)c4[C@@H]2C[C@H]3Cl)cc1
9.98 µM (inactive)

Return GI50 (reported value) for this molecule: C1CCN(c2nc(=[N+]3CCCCC3)ss2)CC1
71.9 µM (inactive)

Return GI50 (reported value) for this molecule: C#CCN(N=O)C(=O)NCCCCC(NC(C)=O)C(=O)NCc1ccccc1 (stereo not drawn)
> 100 µM (inactive)

Return GI50 (reported value) for this molecule: CCOC(=O)C1(C#N)OC(=O)c2cnccc21 (stereo not drawn)
> 100 µM (inactive)

Return GI50 (reported value) for this molecule: N#Cc1cnn2cc[nH]c12
> 100 µM (inactive)

Return GI50 (reported value) for this molecule: CC(CS(=O)(=O)Cc1ccccc1)C(N)=O (stereo not drawn)
> 100 µM (inactive)

Return GI50 (reported value) for this molecule: O=NC1C(Cl)C2CC1C1C(Br)C(Br)CC21 (stereo not drawn)
> 100 µM (inactive)

Return GI50 (reported value) for this molecule: O=C(O)C(Cc1c[nH]c2ccccc12)C(=O)NO (stereo not drawn)
> 100 µM (inactive)

Return GI50 (reported value) for this molecule: CC(C)CCCC(C)[C@H]1CCC2[C@H]3C(CC[C@@]21C)[C@@]1(C)CCC=C[C@]12C[C@@H]2[C@@H]3O (stereo partly drawn)
> 100 µM (inactive)

Return GI50 (reported value) for this molecule: CC1=NN(c2ccc(S(=O)(=O)O)cc2)C(=O)/C1=C/c1ccc(Cl)cc1.c1ccncc1
> 100 µM (inactive)

Return GI50 (reported value) for this molecule: COc1ccc(S(=O)(=O)Nc2ccccc2C(=O)O)cc1
> 100 µM (inactive)

Return GI50 (reported value) for this molecule: CC(=O)NC(CCC(=O)OC(C)(C)C)C(=O)NC(CCC(=O)OC(C)(C)C)C(=O)NC(Cc1ccc([N+](=O)[O-])cc1)C(=O)NC(CCCCNC(=O)OC(C)(C)C)C(=O)NC(CCCCNC(=O)OC(C)(C)C)C(=O)NCC(=O)O (stereo not drawn) (Ac-E(OtBu)E(OtBu)[Phe(4-NO2)]K(Boc)K(Boc)G-OH; configuration not given here)
> 100 µM (inactive)

Return GI50 (reported value) for this molecule: CC(C)[Si](OCC1CC(C#N)OC(C)(C)O1)(C(C)C)C(C)C (stereo not drawn)
21.3 µM (inactive)

Return GI50 (reported value) for this molecule: CC(=O)OC1C/C(C)=C/CCC(C)/C=C/C2(C)CCC(C(C)(C)O)C12 (stereo not drawn)
> 100 µM (inactive)

Return GI50 (reported value) for this molecule: CCOC(=O)c1cc2cc(CSc3ccccc3)ccc2oc1=O
> 100 µM (inactive)

Return GI50 (reported value) for this molecule: CCOC(=O)Cc1c(Cc2[nH]c(C(=O)OCc3ccccc3)c(CC(=O)OCC)c2CC(=O)OCC)[nH]c(C(=O)OCc2ccccc2)c1CC(=O)OCC
> 100 µM (inactive)
